Biological target: T1, P467_RHIPU (Rhipicephalus pulchellus, UniProt L7M8Z8 22-127)
T1 construct: Tick evasin; also called Evasin
T1 sequence: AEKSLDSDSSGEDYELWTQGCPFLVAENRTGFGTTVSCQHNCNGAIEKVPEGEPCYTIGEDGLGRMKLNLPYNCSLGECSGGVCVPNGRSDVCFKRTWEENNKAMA
Assay: microscale thermophoresis, AlexaFluor 647 labelled chemokine
value.kind: pKd
pKd here is simply -log10 of the concentration when that concentration is written in mol/L.

Per the record, CCL5_HUMAN (ligand, Biotinylated (detected with streptavidin-Alexa647) in yeast display; AlexaFluor 647 labelled (Almac) in thermophoresis) SPYSSDTTPCCFAYIARPLPRAHIKEYFYTSGKCSNPAVVFVTRKNRQVCANPEKKWVREYINSLEMS has pKd of 7.32
